- Assay Target: T1, human pIgR extracellular domain (ECD) (human, UniProt P01833 19-638)
- T1 construct: also called hpIgR ECD
- T1 sequence (P01833 other isoform, or with tags, fused parts or gaps): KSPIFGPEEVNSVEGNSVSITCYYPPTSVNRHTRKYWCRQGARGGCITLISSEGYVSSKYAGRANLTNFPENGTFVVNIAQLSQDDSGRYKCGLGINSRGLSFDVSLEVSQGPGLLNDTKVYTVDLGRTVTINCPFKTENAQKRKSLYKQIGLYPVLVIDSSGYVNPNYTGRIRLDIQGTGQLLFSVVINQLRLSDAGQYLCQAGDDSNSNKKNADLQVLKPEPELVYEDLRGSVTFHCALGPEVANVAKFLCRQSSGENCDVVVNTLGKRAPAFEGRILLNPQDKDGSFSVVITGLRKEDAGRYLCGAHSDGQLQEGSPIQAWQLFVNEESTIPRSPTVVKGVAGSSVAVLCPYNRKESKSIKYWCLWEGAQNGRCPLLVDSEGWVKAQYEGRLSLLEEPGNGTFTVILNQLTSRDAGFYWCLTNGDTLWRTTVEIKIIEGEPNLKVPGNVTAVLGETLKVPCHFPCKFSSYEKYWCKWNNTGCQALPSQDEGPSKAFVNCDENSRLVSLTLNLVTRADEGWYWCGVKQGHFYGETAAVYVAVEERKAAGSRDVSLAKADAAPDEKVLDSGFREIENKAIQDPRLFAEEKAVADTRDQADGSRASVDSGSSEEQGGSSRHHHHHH
- Assay Summary: BLI; summary table, repeats Table 1
pKd: −log10 of the molar value.
Measured Parameter: pKd

>>> value_measured("VHH5-linker-mono-Fc protein (Fc fusion, made in CHO cells; also called VHH5-mono-Fc; hpIgR_175) QVQLVESGGGLVQAGGSLRLSCAASGRTFSSYAMGWFRQAPGKEREFVAAITWNGGTTYYADSVKGRFTISRDNAKNTVYLQMNSLKPEDTAVYYCAADPFNQGYWGQGTQVTVSSEPKTPKPQPQPQLQPQPNPTTESKSPKSPAPELLGGPSVFLFPPKPKDTLMISRTPEVTCVVVDVSHEDPEVKFNWYVDGVEVHNAKTKPREEQYNSTYRVVSVLTVLHQDWLNGKEYKCKVSNKALPAPIEKTISKAKGQPREPQVYTKPPSREEMTKNQVSLSCLVKGFYPSDIAVEWESNGQPENNYKTTVPVLDSDGSFRLASYLTVDKSRWQQGNVFSCSVMHEALHNHYTQKSLSLSPGK")
7.96
>>> value_measured("VHH7-linker-mono-Fc protein (Fc fusion, made in CHO cells; also called VHH7-mono-Fc; hpIgR_198) EVQVVESGGGLVQAGGSLRLACVASRSIGSINVMGWYRQAPGKQRDLVARITGGGSTHYAESVKGRFTISRDNAKNTVYLQMNSLEPEDTAVYYCASMVNPIITAWGTIGVREIPDYDYWGQGTQVTVSSEPKTPKPQPQPQLQPQPNPTTESKSPKSPAPELLGGPSVFLFPPKPKDTLMISRTPEVTCVVVDVSHEDPEVKFNWYVDGVEVHNAKTKPREEQYNSTYRVVSVLTVLHQDWLNGKEYKCKVSNKALPAPIEKTISKAKGQPREPQVYTKPPSREEMTKNQVSLSCLVKGFYPSDIAVEWESNGQPENNYKTTVPVLDSDGSFRLASYLTVDKSRWQQGNVFSCSVMHEALHNHYTQKSLSLSPGK")
6.28

The measured values listed here are drawn from patent US20220324970A1.
